# credit: ChEMBL document CHEMBL4033642

# Tested on: NCI-H1299
# Run Description: Antiproliferative activity against human H1299 cells after 48 hrs by resazurin dye-based fluorescence assay
# Assay type: functional, cell-based
# Assay Setup: NCI-H1299, 48 h
pIC50: −log10 of the molar value.
Recorded pIC50 by entry

Sample Smiles	pIC50
Oc1ccc(-c2cn(Cc3ccccc3)cc2-c2ccc(O)cc2)cc1	4.57
COc1ccc(-c2cn(Cc3ccc(O)c(O)c3)cc2-c2ccc(OC)cc2)cc1	4.72
COc1ccc(-c2cn(Cc3ccc(O)cc3)cc2-c2ccc(OC)cc2)cc1	4.69
COc1ccc(-c2cn(Cc3ccc(O)cc3)cc2-c2ccc(OC)c(OC)c2)cc1OC	4.51
COc1cc(Cn2cc(-c3ccc(O)c(O)c3)c(-c3ccc(O)c(O)c3)c2)cc(OC)c1OC	4.88

* * *

# Test system: NCI-H1299
# Run Description: Antiproliferative activity against human H1299 cells after 48 hrs by resazurin dye-based fluorescence assay
# Type: functional, cell-based
# Assay Setup: NCI-H1299, 48 h
API: label(entry) gives Y if the entry's IC50 is strictly smaller than 30 µM; on equality or larger values it gives N.

Sample Smiles	System	Assigned Label
COc1ccc(Cn2cc(-c3ccc(O)cc3)c(-c3ccc(O)cc3)c2)c(OC)c1	NCI-H1299	N
COc1ccc(Cn2cc(-c3ccc(O)cc3)c(-c3ccc(O)cc3)c2)c(OC)c1OC	NCI-H1299	Y
COc1cccc(Cn2cc(-c3ccc(O)cc3)c(-c3ccc(O)cc3)c2)c1	NCI-H1299	Y
COc1ccccc1Cn1cc(-c2ccc(O)c(O)c2)c(-c2ccc(O)c(O)c2)c1	NCI-H1299	Y
COc1ccc(Cn2cc(-c3ccc(O)c(O)c3)c(-c3ccc(O)c(O)c3)c2)cc1	NCI-H1299	Y
C=CCNC1=C2C[C@@H](C)C[C@H](OC)[C@H](O)[C@@H](C)/C=C(\C)[C@H](OC(N)=O)[C@@H](OC)/C=C\C=C(/C)C(=O)NC(=CC1=O)C2=O	NCI-H1299	Y
COc1ccc(Cn2cc(-c3ccc(O)c(O)c3)c(-c3ccc(O)c(O)c3)c2)cc1OC	NCI-H1299	Y
COc1cc(-c2cn(Cc3ccc(O)cc3)cc2-c2cc(OC)c(OC)c(OC)c2)cc(OC)c1OC	NCI-H1299	N

* * *

# Tested on: NCI-H1299
# Run Description: Antiproliferative activity against human H1299 cells after 48 hrs by resazurin dye-based fluorescence assay
# Format: functional, cell-based
# Assay Setup: NCI-H1299, 48 h
Endpoint: IC50 (µM)

Sample Smiles	System	Measured
COc1ccccc1Cn1cc(-c2ccc(O)cc2)c(-c2ccc(O)cc2)c1	NCI-H1299	23.1
COc1ccc(-c2cn(Cc3ccc(O)c(O)c3)cc2-c2ccc(OC)c(OC)c2)cc1OC	NCI-H1299	23.4
COc1cc(-c2cn(Cc3ccc(O)c(O)c3)cc2-c2cc(OC)c(OC)c(OC)c2)cc(OC)c1OC	NCI-H1299	29.2
COc1ccc(-c2cn(Cc3ccccc3O)cc2-c2ccc(OC)cc2)cc1	NCI-H1299	20.8
COc1ccc(Cn2cc(-c3ccc(O)cc3)c(-c3ccc(O)cc3)c2)cc1	NCI-H1299	37.3
